# targetOrSystem: isolated recombinant JAK2 kinase domain (Homo sapiens (Human), UniProt O60674)
# Sequence (O60674 849-1124): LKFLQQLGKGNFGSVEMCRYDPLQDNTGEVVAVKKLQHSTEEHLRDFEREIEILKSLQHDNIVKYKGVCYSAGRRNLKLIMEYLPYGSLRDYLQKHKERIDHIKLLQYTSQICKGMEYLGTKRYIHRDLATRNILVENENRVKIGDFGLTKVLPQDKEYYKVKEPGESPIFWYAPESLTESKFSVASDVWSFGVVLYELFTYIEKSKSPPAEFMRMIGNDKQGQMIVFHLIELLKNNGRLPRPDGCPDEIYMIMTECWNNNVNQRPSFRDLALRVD
# assay: JAK2 enzyme assay (Caliper LabChip, peptide phosphorylation)
# protocolConditions: 25 μM ATP
pKi: −log10 of the molar value.
Rule: pKi of 9 or more gives 1 (yes); anything lower gives 0 (no).

Does O=C(Nc1cn(C2CCN(CCCN3CCCC3=O)CC2)nc1-c1cc(Cl)ccc1OC(F)F)c1cnn2cccnc12 [Example 155] have a reported pKi of at least 9?
1 (yes)

Is it the case that CN1CCC(COC(=O)C2(C)CCN(C(=O)Cn3cc(NC(=O)c4cnn5cccnc45)c(-c4cc(Cl)ccc4OC(F)F)n3)CC2)CC1 [Example 389] has pKi reaching or exceeding 9?
0 (no)

Now consider a different compound.
Confirm if pKi reported for the compound CC(=O)N1CCC(N2CCC(n3cc(NC(=O)c4c(N)nn5cccnc45)c(-c4cc(Cl)ccc4OC(F)F)n3)CC2)CC1 [Example 144] is 9 or above.
1 (yes)

* * *

# targetOrSystem: isolated recombinant JAK2 kinase domain (Homo sapiens (Human), UniProt O60674)
# assay: JAK2 enzyme assay (Caliper LabChip, peptide phosphorylation)
# protocolConditions: 25 μM ATP
Records here are stratified by Ki; strata: bottom (below 0.8 nM), middle (0.8 nM to below 1 nM), top (1 nM or more)

Sample answers from the record:
Please report the category associated with O=C(Nc1cn(CC(=O)N2CCC(NCCc3ccc(O)cc3)CC2)nc1-c1cc(Cl)ccc1OC(F)F)c1cnn2cccnc12 , nothing else.
top

Classify this compound: O=C(Nc1cn(CC(=O)N2CCC(C(=O)OCCN3CCOCC3)CC2)nc1-c1cc(Cl)ccc1OC(F)F)c1cnn2cccnc12
top

Record CC(=O)N1CCC(CN2C[C@@H]3CN(C(=O)Cn4cc(NC(=O)c5cnn6cccnc56)c(-c5cc(Cl)ccc5OC(F)F)n4)C[C@@H]3C2)CC1 — which class?
middle

Would you mind sorting CN1CCN(C(=O)Cn2cc(NC(=O)c3cnn4cccnc34)c(-c3cc(Cl)ccc3OC(F)F)n2)C(C)(C)C1 into the appropriate category?
top

Field: class (Ki) — entry: CN1CCC2(CC1)CN(C(=O)Cn1cc(NC(=O)c3cnn4cccnc34)c(-c3cc(Cl)ccc3OC(F)F)n1)C2
top

Others:
Form field 'band' for CC(C)N1CCN(C(=O)Cn2cc(NC(=O)c3cnn4cccnc34)c(-c3cc(Cl)ccc3OC(F)F)n2)CC1
top

Band assignment needed for O=C(Nc1cn(CC(=O)N2CCC(CO)CC2)nc1-c1cc(Cl)ccc1OC(F)F)c1cnn2cccnc12 please.
middle

Hey, which category is O=C(Nc1cn([C@@H]2CCNC[C@H]2O)nc1-c1cc(Cl)ccc1OC(F)F)c1cnn2cccnc12 in, do you know?
bottom

Please let me know in which category the item CN(CCn1cc(NC(=O)c2cnn3cccnc23)c(-c2cc(Cl)ccc2OC(F)F)n1)CC1CCC(=O)O1 (stereo not drawn) belongs.
middle

Exercise: read the entry CC1(O)CCN(C(=O)Cn2cc(NC(=O)c3cnn4cccnc34)c(-c3cc(Cl)ccc3OC(F)F)n2)C1 (stereo not drawn) and state which class it falls under.
middle

* * *

# Tested on: JAK1-dependent STAT6 phosphorylation downstream of IL-13 stimulation in BEAS-2B human bronchial epithelial cells
# assay: JAK1 pathway assay in BEAS-2B cells (IL-13-pSTAT6, MSD)
# Assay type: cell-based
# protocolConditions: read-out: IL13-pSTAT6 EC50 (uM)_BEAS-2B
Quick reference: log10(EC50) of the listed items.
Each number you see is log10 of EC50, and the unit inside the log is µM.

Recorded log10(EC50), per entry:
// returns reported log10(EC50) for input O=C(Nc1cn([C@@H]2CCNC[C@H]2O)nc1-c1cc(Cl)ccc1OC(F)F)c1cnn2cccnc12 [Example 358]
-1.88

Tell me the measured log10(EC50) of CN1CCC(COC(=O)C2(C)CCN(C(=O)Cn3cc(NC(=O)c4cnn5cccnc45)c(-c4cc(Cl)ccc4OC(F)F)n3)CC2)CC1 [Example 389] , please.
-1.76

Give the measured log10(EC50) of CN(CC1=CC(=O)OC1)C1CCN(C(=O)Cn2cc(NC(=O)c3cnn4cccnc34)c(-c3cc(Cl)ccc3OC(F)F)n2)CC1 [Example 352] .
-1.91

Continuing:
Param item = O=C(Nc1cn(Cc2cn(C3CCN(C4CCOCC4)CC3)nn2)nc1-c1cc(Cl)ccc1OC(F)F)c1cnn2cccnc12 [Example 457] ; retrieve measured log10(EC50).
-1.81

Name the reported log10(EC50) value associated with the compound O=C(Nc1cn(CCN2CCNCC2=O)nc1-c1cc(Cl)ccc1OC(F)F)c1cnn2cccnc12 [Example 417]
-1.03
